# assay_remarks: activity coefficient (dimensionless); of the first substance listed, at infinite dilution; xn = mol fraction of the nth substance listed
# details: 308.15 K; Liquid; Chromatography; x1 = 0
The entries below come with measured activity coefficient values attached.

Example entries begin here.
CCCCCCCC [octane] + CC(C)C[P+](C)(CC(C)C)CC(C)C.Cc1ccc(S(=O)(=O)[O-])cc1 : 25.8
C=CCCCC [hex-1-ene] + CC(C)C[P+](C)(CC(C)C)CC(C)C.Cc1ccc(S(=O)(=O)[O-])cc1 : 16.5
C1CCCCCCC1 [cyclooctane] + CC(C)C[P+](C)(CC(C)C)CC(C)C.Cc1ccc(S(=O)(=O)[O-])cc1 : 8.54
Cc1cccc(C)c1 [1,3-dimethylbenzene] + CC(C)C[P+](C)(CC(C)C)CC(C)C.Cc1ccc(S(=O)(=O)[O-])cc1 : 2.48
C#CCCCCC [1-heptyne] + CC(C)C[P+](C)(CC(C)C)CC(C)C.Cc1ccc(S(=O)(=O)[O-])cc1 : 2.62

Answer with reported activity coefficient of CCCCCCCCCC [decane] + CC(C)C[P+](C)(CC(C)C)CC(C)C.Cc1ccc(S(=O)(=O)[O-])cc1
29.2

Answer with reported activity coefficient of C1CCOC1 [tetrahydrofuran] + CC(C)C[P+](C)(CC(C)C)CC(C)C.Cc1ccc(S(=O)(=O)[O-])cc1
1.31

====

The entries below come with measured activity coefficient values attached.
# assay_remarks: activity coefficient (dimensionless); of the first substance listed, at infinite dilution; xn = mol fraction of the nth substance listed
# details: 318.15 K; Liquid; Chromatography; x1 = 0
Just the number.

Example entries begin here.
CCc1ccccc1 [ethylbenzene] + CC(C)C[P+](C)(CC(C)C)CC(C)C.Cc1ccc(S(=O)(=O)[O-])cc1 : 2.33
C1CCCCCCC1 [cyclooctane] + CC(C)C[P+](C)(CC(C)C)CC(C)C.Cc1ccc(S(=O)(=O)[O-])cc1 : 7.48
Cc1ccccc1 [toluene] + CC(C)C[P+](C)(CC(C)C)CC(C)C.Cc1ccc(S(=O)(=O)[O-])cc1 : 1.78

Answer with reported activity coefficient of CCCCCCCCC [nonane] + CC(C)C[P+](C)(CC(C)C)CC(C)C.Cc1ccc(S(=O)(=O)[O-])cc1
21.6

Answer with reported activity coefficient of c1ccsc1 [thiophene] + CC(C)C[P+](C)(CC(C)C)CC(C)C.Cc1ccc(S(=O)(=O)[O-])cc1
0.843

Answer with reported activity coefficient of CCCCCC [hexane] + CC(C)C[P+](C)(CC(C)C)CC(C)C.Cc1ccc(S(=O)(=O)[O-])cc1
23.3

Answer with reported activity coefficient of C=CCCCC [hex-1-ene] + CC(C)C[P+](C)(CC(C)C)CC(C)C.Cc1ccc(S(=O)(=O)[O-])cc1
12.4

Answer with reported activity coefficient of CCCCCCCCCC [decane] + CC(C)C[P+](C)(CC(C)C)CC(C)C.Cc1ccc(S(=O)(=O)[O-])cc1
26

Answer with reported activity coefficient of Cc1ccc(C)cc1 [1,4-dimethylbenzene] + CC(C)C[P+](C)(CC(C)C)CC(C)C.Cc1ccc(S(=O)(=O)[O-])cc1
2.4

====

# assay_remarks: activity coefficient (dimensionless); of the first substance listed, at infinite dilution; xn = mol fraction of the nth substance listed
# details: 308.15 K; Liquid; Chromatography; x1 = 0
The entries below come with measured activity coefficient values attached.
Just the number.

Example entries begin here.
CCO [ethanol] + CC(C)C[P+](C)(CC(C)C)CC(C)C.Cc1ccc(S(=O)(=O)[O-])cc1 : 0.263
C1CCCCCC1 [cycloheptane] + CC(C)C[P+](C)(CC(C)C)CC(C)C.Cc1ccc(S(=O)(=O)[O-])cc1 : 9.79
CCc1ccccc1 [ethylbenzene] + CC(C)C[P+](C)(CC(C)C)CC(C)C.Cc1ccc(S(=O)(=O)[O-])cc1 : 2.37
Cc1ccccc1C [1,2-dimethylbenzene] + CC(C)C[P+](C)(CC(C)C)CC(C)C.Cc1ccc(S(=O)(=O)[O-])cc1 : 2.21
Cc1ccc(C)cc1 [1,4-dimethylbenzene] + CC(C)C[P+](C)(CC(C)C)CC(C)C.Cc1ccc(S(=O)(=O)[O-])cc1 : 2.44

Answer with reported activity coefficient of Cc1ccccc1 [toluene] + CC(C)C[P+](C)(CC(C)C)CC(C)C.Cc1ccc(S(=O)(=O)[O-])cc1
1.81

Answer with reported activity coefficient of CCCCCCC [heptane] + CC(C)C[P+](C)(CC(C)C)CC(C)C.Cc1ccc(S(=O)(=O)[O-])cc1
26.4

Answer with reported activity coefficient of C#CCCCCCC [1-octyne] + CC(C)C[P+](C)(CC(C)C)CC(C)C.Cc1ccc(S(=O)(=O)[O-])cc1
3.08

====

# assay_remarks: activity coefficient (dimensionless); of the first substance listed, at infinite dilution; xn = mol fraction of the nth substance listed
# details: 368.15 K; Liquid; Chromatography; x1 = 0
The entries below come with measured activity coefficient values attached.
Just the number.

Example entries begin here.
O [water] + CC(C)C[P+](C)(CC(C)C)CC(C)C.Cc1ccc(S(=O)(=O)[O-])cc1 : 0.477
CCCCCO [pentan-1-ol] + CC(C)C[P+](C)(CC(C)C)CC(C)C.Cc1ccc(S(=O)(=O)[O-])cc1 : 0.357
Cc1ccccc1 [toluene] + CC(C)C[P+](C)(CC(C)C)CC(C)C.Cc1ccc(S(=O)(=O)[O-])cc1 : 1.61
c1ccccc1 [benzene] + CC(C)C[P+](C)(CC(C)C)CC(C)C.Cc1ccc(S(=O)(=O)[O-])cc1 : 1.18
CCCO [propan-1-ol] + CC(C)C[P+](C)(CC(C)C)CC(C)C.Cc1ccc(S(=O)(=O)[O-])cc1 : 0.287

Answer with reported activity coefficient of CCO [ethanol] + CC(C)C[P+](C)(CC(C)C)CC(C)C.Cc1ccc(S(=O)(=O)[O-])cc1
0.266

Answer with reported activity coefficient of CCc1ccccc1 [ethylbenzene] + CC(C)C[P+](C)(CC(C)C)CC(C)C.Cc1ccc(S(=O)(=O)[O-])cc1
2.09

Answer with reported activity coefficient of CCCCO [butan-1-ol] + CC(C)C[P+](C)(CC(C)C)CC(C)C.Cc1ccc(S(=O)(=O)[O-])cc1
0.323

====

# assay_remarks: activity coefficient (dimensionless); of the first substance listed, at infinite dilution; xn = mol fraction of the nth substance listed
# details: 338.15 K; Liquid; Chromatography; x1 = 0
measured_quantity: activity coefficient

Cc1ccccc1C [1,2-dimethylbenzene] + CC(C)C[P+](C)(CC(C)C)CC(C)C.Cc1ccc(S(=O)(=O)[O-])cc1 : 2.06
CO [methanol] + CC(C)C[P+](C)(CC(C)C)CC(C)C.Cc1ccc(S(=O)(=O)[O-])cc1 : 0.171

Answer with reported activity coefficient of CCO [ethanol] + CC(C)C[P+](C)(CC(C)C)CC(C)C.Cc1ccc(S(=O)(=O)[O-])cc1
0.262

Answer with reported activity coefficient of COC(C)(C)C [2-methoxy-2-methylpropane] + CC(C)C[P+](C)(CC(C)C)CC(C)C.Cc1ccc(S(=O)(=O)[O-])cc1
5

====

The entries below come with measured activity coefficient values attached.
# assay_remarks: activity coefficient (dimensionless); of the first substance listed, at infinite dilution; xn = mol fraction of the nth substance listed
# details: 338.15 K; Liquid; Chromatography; x1 = 0
Just the number.

Example entries begin here.
C1CCOC1 [tetrahydrofuran] + CC(C)C[P+](C)(CC(C)C)CC(C)C.Cc1ccc(S(=O)(=O)[O-])cc1 : 1.09
Cc1cccc(C)c1 [1,3-dimethylbenzene] + CC(C)C[P+](C)(CC(C)C)CC(C)C.Cc1ccc(S(=O)(=O)[O-])cc1 : 2.36
CCCO [propan-1-ol] + CC(C)C[P+](C)(CC(C)C)CC(C)C.Cc1ccc(S(=O)(=O)[O-])cc1 : 0.284

Next:
Answer with reported activity coefficient of CCc1ccccc1 [ethylbenzene] + CC(C)C[P+](C)(CC(C)C)CC(C)C.Cc1ccc(S(=O)(=O)[O-])cc1
2.2

====

# assay_remarks: activity coefficient (dimensionless); of the first substance listed, at infinite dilution; xn = mol fraction of the nth substance listed
# details: 328.15 K; Liquid; Chromatography; x1 = 0
Classification field. Basis: activity coefficient. Definitions: lower level: < 2; middle level: ≥ 2 and < 7; upper level: ≥ 7

Example entries and their recorded answers appear below.
C1CCCCC1 [cyclohexane] + CC(C)C[P+](C)(CC(C)C)CC(C)C.Cc1ccc(S(=O)(=O)[O-])cc1 : upper level
COC(C)(C)C [2-methoxy-2-methylpropane] + CC(C)C[P+](C)(CC(C)C)CC(C)C.Cc1ccc(S(=O)(=O)[O-])cc1 : middle level
Cc1ccc(C)cc1 [1,4-dimethylbenzene] + CC(C)C[P+](C)(CC(C)C)CC(C)C.Cc1ccc(S(=O)(=O)[O-])cc1 : middle level
C=CCCCCC [1-heptene] + CC(C)C[P+](C)(CC(C)C)CC(C)C.Cc1ccc(S(=O)(=O)[O-])cc1 : upper level
C#CCCCCCC [1-octyne] + CC(C)C[P+](C)(CC(C)C)CC(C)C.Cc1ccc(S(=O)(=O)[O-])cc1 : middle level

Please let me know in which category the item CCCCO [butan-1-ol] + CC(C)C[P+](C)(CC(C)C)CC(C)C.Cc1ccc(S(=O)(=O)[O-])cc1 belongs.
lower level

Please let me know in which category the item CCO [ethanol] + CC(C)C[P+](C)(CC(C)C)CC(C)C.Cc1ccc(S(=O)(=O)[O-])cc1 belongs.
lower level

Please let me know in which category the item CCc1ccccc1 [ethylbenzene] + CC(C)C[P+](C)(CC(C)C)CC(C)C.Cc1ccc(S(=O)(=O)[O-])cc1 belongs.
middle level

Please let me know in which category the item C#CCCCCC [1-heptyne] + CC(C)C[P+](C)(CC(C)C)CC(C)C.Cc1ccc(S(=O)(=O)[O-])cc1 belongs.
middle level

Please let me know in which category the item C1CCCCCC1 [cycloheptane] + CC(C)C[P+](C)(CC(C)C)CC(C)C.Cc1ccc(S(=O)(=O)[O-])cc1 belongs.
middle level

Please let me know in which category the item CO [methanol] + CC(C)C[P+](C)(CC(C)C)CC(C)C.Cc1ccc(S(=O)(=O)[O-])cc1 belongs.
lower level

Please let me know in which category the item C#CCCCC [1-hexyne] + CC(C)C[P+](C)(CC(C)C)CC(C)C.Cc1ccc(S(=O)(=O)[O-])cc1 belongs.
middle level

Please let me know in which category the item CCCO [propan-1-ol] + CC(C)C[P+](C)(CC(C)C)CC(C)C.Cc1ccc(S(=O)(=O)[O-])cc1 belongs.
lower level

Please let me know in which category the item CCCCCCC [heptane] + CC(C)C[P+](C)(CC(C)C)CC(C)C.Cc1ccc(S(=O)(=O)[O-])cc1 belongs.
upper level

Please let me know in which category the item CCCCCCCCC [nonane] + CC(C)C[P+](C)(CC(C)C)CC(C)C.Cc1ccc(S(=O)(=O)[O-])cc1 belongs.
upper level

Please let me know in which category the item C=CCCC [1-pentene] + CC(C)C[P+](C)(CC(C)C)CC(C)C.Cc1ccc(S(=O)(=O)[O-])cc1 belongs.
upper level
